Test: chemical genetic growth profiling, strain panel (AID 1159580);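 note: tested at 20 µM; growth read once vehicle control cultures reached saturation at 30 °C; 1 = growth at the plate median or of vehicle wells; lower values mean less growth of the strain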
Conditions: S. cerevisiae deletion strains, growth OD, locus YNL298W, strain CLA4 (second series)
Screen size: about 5,500 compounds; about 2,000 (36%) were called active. Inconclusive results (about 18%) are left out. Cut-off read from the data, not from the text of the source: active = normalized growth mostly below about 0.91 (no sharp cut-off); inconclusive = no clear call, values can overlap the other calls; inactive = mostly above about 0.92. The list shows a part of the results.
Allowed answers: yes (1) for active, no (0) for inactive

Enquiry: Test call for this compound, please: C=CC1CN2CCC1CC2C(OC(C)=O)c1ccnc2ccc(OC)cc12 (stereo not drawn)
Return: no (0)

Enquiry: Test call for this compound, please: FC(F)(F)c1cc(-c2ccco2)nc2cc(-c3ccco3)nn12
Return: no (0)

Enquiry: Test call for this compound, please: Nc1nc(Sc2ccc(C(F)(F)F)cc2[N+](=O)[O-])n[nH]1
Return: no (0)

Enquiry: Test call for this compound, please: Nc1nc(Sc2cc(-n3cccc3)c(Cl)cc2[N+](=O)[O-])n[nH]1
Return: no (0)

Enquiry: Test call for this compound, please: CCCc1ccc(-c2nc(-c3ccc(C)cc3)no2)cc1
Return: no (0)

Enquiry: Test call for this compound, please: O=[N+]([O-])c1cc(C(F)(F)F)ccc1Oc1cc(C(F)(F)F)cc(C(F)(F)F)c1
Return: no (0)

Enquiry: Test call for this compound, please: O=C1CSC(c2cccnc2)N1c1ccc(C2CCCCC2)cc1 (stereo not drawn)
Return: no (0)

Enquiry: Test call for this compound, please: CCCCC#Cc1ccc(C(=O)NNC(=O)Nc2cc(Cl)cc(Cl)c2)o1
Return: no (0)

Enquiry: Test call for this compound, please: FC(F)(F)c1cc(-c2ccc(Cl)cc2)nc2cc(C3CC3)nn12
Return: no (0)

Enquiry: Test call for this compound, please: CC(C)(C)S(=O)(=O)c1cnc(N)nc1N
Return: no (0)

Enquiry: Test call for this compound, please: C/C(=N/O)c1ccc2c(c1)C(C)(C)CCC2(C)C
Return: no (0)

Enquiry: Test call for this compound, please: CC1CN=C(NC2CCCCC2)S1 (stereo not drawn)
Return: no (0)

Enquiry: Test call for this compound, please: Cc1nc(C(F)(F)F)nc(Sc2n[nH]c(-c3cc(Cl)cc(Cl)c3)n2)c1C
Return: no (0)

Enquiry: Test call for this compound, please: Cc1cc(C(F)(F)F)n2nc(-c3ccc(C(C)(C)C)cc3)cc2n1
Return: no (0)

Enquiry: Test call for this compound, please: O=C1CSC(c2cccnc2)N1c1ccc(Cl)cc1 (stereo not drawn)
Return: no (0)

Enquiry: Test call for this compound, please: COc1ccccc1C1CCN(c2ncnc3scc(-c4ccccc4)c23)CC1
Return: no (0)

Enquiry: Test call for this compound, please: C/C(=N/O)c1ccn(S(=O)(=O)c2ccc(Cl)cc2)c1
Return: no (0)

Enquiry: Test call for this compound, please: O=C(NNC(=O)c1ccc[nH]1)Nc1cc(Cl)cc(Cl)c1
Return: no (0)

Enquiry: Test call for this compound, please: Cc1ccc(S(=O)(=O)N2CCCCCC2)cc1
Return: no (0)

Enquiry: Test call for this compound, please: O=[N+]([O-])c1cc(C(F)(F)F)ccc1Sc1ccc(Cl)cc1
Return: no (0)

Enquiry: Test call for this compound, please: Nc1c(Cl)cc(C(=O)Nc2cc(Cl)cc(Cl)c2)cc1Cl
Return: yes (1)

Enquiry: Test call for this compound, please: Cc1cc(Oc2c([N+](=O)[O-])cc(C(F)(F)F)cc2[N+](=O)[O-])c2c(Cl)ccc(C)c2n1
Return: yes (1)

Enquiry: Test call for this compound, please: COc1ccc(Oc2ccc(C(F)(F)F)cc2[N+](=O)[O-])cc1
Return: no (0)
